The reported numbers originate from ChEMBL document CHEMBL5120920.

Assay: Efflux ratio of apparent permeability from basolateral to apical side over apical to basolateral side in human Caco2 cells by LC-MS/MS analysis
Format: ADME, cell-based
Details: Caco-2
The reader will find reported efflux ratio values listed item by item below.

line notation	value qualifier	efflux ratio
O=C(O)CCCc1ccccc1	>	1.54
O=C(CCCCCCCCC[P+](c1ccc(C(F)(F)F)cc1)(c1ccc(C(F)(F)F)cc1)c1ccc(C(F)(F)F)cc1)NC(COC(=O)CCCc1ccccc1)(COC(=O)CCCc1ccccc1)COC(=O)CCCc1ccccc1.[Br-]	=	0.69

###

Test system: A-375
Assay: Cytotoxicity against human A-375 cells assessed as reduction in cell vaibility measured at 48 hrs in presence of BNPP by MTT assay
Format: functional, cell-based
Details: A-375, 48 h
value kind: IC50 (µM)

line notation	system	experimental result
O=C(CCCCCCCCC[P+](c1ccc(C(F)(F)F)cc1)(c1ccc(C(F)(F)F)cc1)c1ccc(C(F)(F)F)cc1)NC(COC(=O)CCCc1ccccc1)(COC(=O)CCCc1ccccc1)COC(=O)CCCc1ccccc1.[Br-]	A-375	18.9
